Target: human thrombin (HT) (Homo sapiens (human), UniProt P00734;P00734 328-363;364-622)
Assay: nanopore single-molecule titration
OBSERVATION_TYPE: pKd
When answering, recall that pKd equals minus log10 of the concentration in mol/L, and write that number alone.

Q. Let me know recorded pKd for GGTTGGTGTGGTTGG (structured_DNA) [TBA] , thanks.
A. 7.89
